System: 616215-338-R-J1-PDC complex spheroid viability;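 further: spheroids exposed to agents for seven days before viability readout; 100% = DMSO vehicle control viability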
assay.details: Anticancer human tumor 616215-338-R-J1-PDC patient-derived colon adenocarcinoma cell line growth inhibition [RAS]
test.context: second compound 0.03 µM; first compound 0.1 µM; stronger effect = lower value
For each entry below, report its viability, T/C value.
Form entry: value (%) — number only.

CCC(CC)c1cc(NC2CCC(N)C2)n2nccc2n1 (centres undefined) + CCn1c(-c2cc(N3CCN(C)CC3)cnc2C(C)OC)c2c3cc(ccc31)-c1csc(n1)CC(NC(=O)C1CC1C)C(=O)N1CCCC(N1)C(=O)OCC(C)(C)C2 yielded viability, T/C of 55.3

C=CC(=O)N1CCN(c2nc(OCC3CCCN3C)nc3c(F)c(-c4nc(N)cc(C)c4C(F)(F)F)c(Cl)cc23)C(C)C1 (centres undefined) + CCn1c(-c2cccnc2C(C)OC)c2c3cc(ccc31)N1CCOC(CC(NC(=O)C(C(C)C)N(C)C(=O)C3(F)CCN(C(=O)C#CC(C)(C)N(C)C)CC3)C(=O)N3CCCC(N3)C(=O)OCC(C)(C)C2)C1 yielded viability, T/C of 115

CC(C)NCC(C(=O)N1CCN(c2ncnc3c2C(C)CC3O)CC1)c1ccc(Cl)cc1 (centres undefined) + CCn1c(-c2cccnc2C(C)OC)c2c3cc(ccc31)N1CCOC(CC(NC(=O)C(C(C)C)N(C)C(=O)C3(F)CCN(C(=O)C#CC(C)(C)N(C)C)CC3)C(=O)N3CCCC(N3)C(=O)OCC(C)(C)C2)C1 yielded viability, T/C of 98.8

CC(Nc1ccc2c(c1)OCCn1cc(N3C(=O)OCC3C(F)F)nc1-2)C(N)=O (centres undefined) + CCn1c(-c2cccnc2C(C)OC)c2c3cc(ccc31)N1CCOC(CC(NC(=O)C(C(C)C)N(C)C(=O)C3(F)CCN(C(=O)C#CC(C)(C)N(C)C)CC3)C(=O)N3CCCC(N3)C(=O)OCC(C)(C)C2)C1 yielded viability, T/C of 109
